Test system: induction of TAT by dexamethasone in HepG2 cells
Test: HepG2 tyrosine aminotransferase (TAT) assay
Type: cell-based, human
Conditions: HepG2 cells, challenge of 100 nM dexamethasone; Ki from IC50 by Cheng and Prusoff equation
Experimental: Example 21. HepG2 Tyrosine Aminotransferase (TAT) Assay Glucocorticoid mediated activation of TAT occurs by transactivation of glucocorticoid response elements in the TAT promoter by glucocorticoid receptor agonist complex. TAT activity was measured as outlined in the literature by A. Ali et al., J. Med. Chem., 2004, 47, 2441-2452. HepG2 cells were cultured using MEME media supplemented with 10% (v/v) foetal bovine serum; 2 mM L-glutamine and 1% (v/v) NEAA at 37° C., 5%/95% (v/v) CO2/air. […]
MEASURE: Ki

GET /value?item= Cc1cccc(S(=O)(=O)N2CCC3=Cc4c(cnn4-c4ccc(F)cc4)C[C@]3(C(=O)c3cc(C)ccn3)C2)c1 [Example 12G] &field=Ki returns < 20 nM

GET /value?item= O=C(c1nccs1)[C@]12Cc3cnn(-c4ccc(F)cc4)c3C=C1CCN(S(=O)(=O)c1ccc(N3CC[C@@H](F)C3)nc1)C2 &field=Ki returns ≥ 100 nM

GET /value?item= Cc1cnc(C(=O)[C@]23Cc4cnn(-c5ccc(F)cc5)c4C=C2CCN(S(=O)(=O)c2ccc(F)c(F)c2)C3)s1 [Example 12Q] &field=Ki returns < 20 nM

GET /value?item= N#Cc1cccc(S(=O)(=O)N2CCC3=Cc4c(cnn4-c4ccc(F)cc4)C[C@]3(C(=O)c3cc(C(F)(F)F)ccn3)C2)c1 [Example 11BL] &field=Ki returns < 20 nM

GET /value?item= Cc1ccnc(C(=O)[C@]23Cc4cnn(-c5ccc(F)cc5)c4C=C2CCN(S(=O)(=O)c2ccc4c(c2)CC(=O)N4C)C3)c1 [Example 11AO] &field=Ki returns < 20 nM

GET /value?item= Cc1ccc(S(=O)(=O)N2CCC3=Cc4c(cnn4-c4ccc(F)cc4)C[C@]3(C(=O)c3ccccn3)C2)cc1C [Example 11M] &field=Ki returns < 20 nM

###

test system: induction of TAT by dexamethasone in HepG2 cells; assay: HepG2 tyrosine aminotransferase (TAT) assay; type: cell-based, human; conditions: HepG2 cells, challenge of 100 nM dexamethasone; Ki from IC50 by Cheng and Prusoff equation
pKi: −log10 of the molar value.
MEASURE: pKi

GET /value?item= Cc1[nH]ncc1S(=O)(=O)N1CCC2=Cc3c(cnn3-c3ccc(F)cc3)C[C@]2(C(=O)c2cc(C(F)(F)F)ccn2)C1 [Example 11BK] &field=pKi returns > 7.70

GET /value?item= O=C(c1cc(C(F)(F)F)ccn1)[C@]12Cc3cnn(-c4ccc(F)cc4)c3C=C1CCN(S(=O)(=O)c1c[nH]cn1)C2 &field=pKi returns 7.00 to 7.70

GET /value?item= Cn1ncc(S(=O)(=O)N2CCC3=Cc4c(cnn4-c4ccc(F)cc4)C[C@]3(C(=O)c3nccs3)C2)n1 (single isomer, unassigned) [Example 12Z] &field=pKi returns ≤ 7.00

GET /value?item= O=C(c1ccccn1)[C@]12Cc3cnn(-c4ccc(F)cc4)c3C=C1CCN(S(=O)(=O)c1ccc(F)c(Cl)c1)C2 [Example 11R] &field=pKi returns > 7.70

GET /value?item= Cn1cc(S(=O)(=O)N2CCC3=Cc4c(cnn4-c4ccc(F)cc4)C[C@]3(C(=O)c3cc(C(F)(F)F)ccn3)C2)cn1 &field=pKi returns > 7.70

GET /value?item= Cn1cc(S(=O)(=O)N2CCC3=Cc4c(cnn4-c4ccc(F)cc4)C[C@]3(C(=O)c3ccccn3)C2)cn1 &field=pKi returns 7.00 to 7.70

GET /value?item= Cn1ncnc1C(=O)[C@]12Cc3cnn(-c4ccc(F)cc4)c3C=C1CCN(S(=O)(=O)c1ccc(C(F)(F)F)cc1)C2 &field=pKi returns ≤ 7.00

GET /value?item= O=C(c1nccs1)[C@]12Cc3cnn(-c4ccc(F)cc4)c3C=C1CCN(S(=O)(=O)c1ccccc1)C2 [Example 12D] &field=pKi returns > 7.70

GET /value?item= O=C(c1nccs1)[C@]12Cc3cnn(-c4ccc(F)cc4)c3C=C1CCN(S(=O)(=O)c1ccc(F)c(F)c1)C2 [Example 12P] &field=pKi returns 7.00 to 7.70

GET /value?item= Cc1ccnc(C(=O)[C@]23Cc4cnn(-c5ccc(F)cc5)c4C=C2CCN(S(=O)(=O)c2cc(C(F)(F)F)ccn2)C3)c1 [Example 11BC] &field=pKi returns > 7.70

GET /value?item= Cc1ccnc(C(=O)[C@]23Cc4cnn(-c5ccc(F)cc5)c4C=C2CCN(S(=O)(=O)c2cccc(C#N)c2)C3)c1 [Example 11S] &field=pKi returns > 7.70

GET /value?item= COc1ccnc(C(=O)[C@]23Cc4cnn(-c5ccc(F)cc5)c4C=C2CCN(S(=O)(=O)c2cc(F)c(F)c(F)c2)C3)c1 &field=pKi returns > 7.70

GET /value?item= O=C(c1ccccn1)[C@]12Cc3cnn(-c4ccc(F)cc4)c3C=C1CCN(S(=O)(=O)c1ccc(Cl)c(F)c1)C2 &field=pKi returns > 7.70

###

Target: human recombinant GR (Homo sapiens, UniProt P04150)
Construct: purchased PanVera P2812
Sequence (P04150 whole entry): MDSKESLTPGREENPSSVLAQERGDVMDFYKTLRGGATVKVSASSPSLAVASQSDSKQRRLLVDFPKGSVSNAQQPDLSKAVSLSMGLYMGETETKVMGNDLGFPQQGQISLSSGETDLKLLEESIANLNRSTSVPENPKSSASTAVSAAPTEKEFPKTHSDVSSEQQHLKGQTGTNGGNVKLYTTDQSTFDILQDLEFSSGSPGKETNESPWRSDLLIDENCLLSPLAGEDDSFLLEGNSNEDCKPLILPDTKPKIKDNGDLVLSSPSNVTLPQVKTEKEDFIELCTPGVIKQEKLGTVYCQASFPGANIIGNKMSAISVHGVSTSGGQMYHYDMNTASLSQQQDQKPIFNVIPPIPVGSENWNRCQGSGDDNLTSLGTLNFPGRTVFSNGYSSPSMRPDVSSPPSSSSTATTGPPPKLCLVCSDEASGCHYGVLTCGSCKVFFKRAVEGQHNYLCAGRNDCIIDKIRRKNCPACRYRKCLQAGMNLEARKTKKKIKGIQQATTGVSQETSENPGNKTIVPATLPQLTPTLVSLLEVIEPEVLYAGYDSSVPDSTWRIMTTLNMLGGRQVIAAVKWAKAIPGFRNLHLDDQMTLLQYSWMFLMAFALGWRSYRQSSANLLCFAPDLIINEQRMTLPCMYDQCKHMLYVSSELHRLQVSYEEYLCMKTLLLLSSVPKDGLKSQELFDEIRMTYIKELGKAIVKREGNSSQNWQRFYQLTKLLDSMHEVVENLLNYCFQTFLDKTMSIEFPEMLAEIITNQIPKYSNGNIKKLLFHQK
Test: Human glucocorticoid receptor (GR) fluorescence polarisation (FP) binding assay
Conditions: human recombinant GR, fluorescence polarisation binding assay; read-out: GR binding
Experimental: Human Glucocorticoid Receptor (GR) Fluorescence Polarisation (FP) Binding Assay The following is a description of a FP assay for measuring compound inhibition of labelled glucocorticoid binding to the human recombinant GR. The binding affinity of test compounds was determined using a FP binding assay using human recombinant GR (PanVera P2812) and a fluorescent labelled glucocorticoid ligand (Fluorome GS Red) (PanVera P2894). […]
MEASURE: Ki

GET /value?item= CCn1cc(S(=O)(=O)N2CCC3=Cc4c(cnn4-c4ccc(F)cc4)C[C@]3(C(=O)c3cc(C(F)(F)F)ccn3)C2)nn1 [Example 11CM] &field=Ki returns < 0.5 nM

GET /value?item= Cn1ccnc1S(=O)(=O)N1CCC2=Cc3c(cnn3-c3ccc(F)cc3)C[C@]2(C(=O)c2cc(C(F)(F)F)ccn2)C1 [Example 11BX] &field=Ki returns 0.5 to 1 nM

GET /value?item= Cn1cc(S(=O)(=O)N2CCC3=Cc4c(cnn4-c4ccc(F)cc4)C[C@]3(C(=O)c3ccccn3)C2)cn1 [Example 2M] &field=Ki returns < 0.5 nM

GET /value?item= CCCn1ncc(S(=O)(=O)N2CCC3=Cc4c(cnn4-c4ccc(F)cc4)C[C@]3(C(=O)c3cscn3)C2)n1 [Example 11CQ] &field=Ki returns < 0.5 nM

GET /value?item= COc1ccc(C(=O)[C@]23Cc4cnn(-c5ccc(F)cc5)c4C=C2CCN(S(=O)(=O)c2ccc(C(F)(F)F)cc2)C3)nc1 [Example 5H] &field=Ki returns 0.5 to 1 nM

GET /value?item= Cn1cc(S(=O)(=O)N2CCC3=Cc4c(cnn4-c4ccc(F)cc4)C[C@]3(C(=O)c3cc(C(F)(F)F)ccn3)C2)nn1 [Example 11CG] &field=Ki returns < 0.5 nM

GET /value?item= CCn1nncc1S(=O)(=O)N1CCC2=Cc3c(cnn3-c3ccc(F)cc3)C[C@]2(C(=O)c2cc(C(F)(F)F)ccn2)C1 [Example 11CL] &field=Ki returns > 1 nM

GET /value?item= Cc1nnc(C(=O)[C@]23Cc4cnn(-c5ccc(F)cc5)c4C=C2CCN(S(=O)(=O)c2ccc(C(F)(F)F)cc2)C3)o1 [Example 1D] &field=Ki returns > 1 nM

GET /value?item= CCn1cnc(S(=O)(=O)N2CCC3=Cc4c(cnn4-c4ccc(F)cc4)C[C@]3(C(=O)c3cc(C(F)(F)F)ccn3)C2)c1 [Example 11BY] &field=Ki returns < 0.5 nM

GET /value?item= Cc1cnc(C(=O)[C@]23Cc4cnn(-c5ccc(F)cc5)c4C=C2CCN(S(=O)(=O)c2ccn(C)n2)C3)s1 [Example 12S] &field=Ki returns < 0.5 nM

GET /value?item= Cc1ccnc(C(=O)[C@]23Cc4cnn(-c5ccc(F)cc5)c4C=C2CCN(S(=O)(=O)c2ccc(F)c(F)c2)C3)c1 [Example 11U] &field=Ki returns < 0.5 nM

GET /value?item= O=C(c1cc(C(F)(F)F)ccn1)[C@]12Cc3cnn(-c4ccc(F)cc4)c3C=C1CCN(S(=O)(=O)c1cc(F)c(F)c(F)c1)C2 [Example 11BQ] &field=Ki returns > 1 nM

GET /value?item= CCn1ncc(S(=O)(=O)N2CCC3=Cc4c(cnn4-c4ccc(F)cc4)C[C@]3(C(=O)c3cc(C(F)(F)F)ccn3)C2)n1 [Example 11CK] &field=Ki returns < 0.5 nM

GET /value?item= Cc1ccnc(C(=O)[C@]23Cc4cnn(-c5ccc(F)cc5)c4C=C2CCN(S(=O)(=O)c2cn(C)nc2C)C3)c1 [Example 11AQ] &field=Ki returns < 0.5 nM

GET /value?item= Cn1nncc1S(=O)(=O)N1CCC2=Cc3c(cnn3-c3ccc(F)cc3)C[C@]2(C(=O)c2cc(C(F)(F)F)ccn2)C1 [Example 11CF] &field=Ki returns > 1 nM

GET /value?item= O=C(c1nccs1)[C@]12Cc3cnn(-c4ccc(F)cc4)c3C=C1CCN(S(=O)(=O)c1ccc(C(F)(F)F)c(F)c1)C2 [Example 12K] &field=Ki returns < 0.5 nM

GET /value?item= COc1ccc(S(=O)(=O)N2CCC3=Cc4c(cnn4-c4ccc(F)cc4)C[C@]3(C(=O)c3ccccn3)C2)cn1 [Example 2R] &field=Ki returns < 0.5 nM

GET /value?item= O=C(c1ccccn1)[C@]12Cc3cnn(-c4ccc(F)cc4)c3C=C1CCN(S(=O)(=O)c1ccc(N3CCOCC3)nc1)C2 [Example 3] &field=Ki returns < 0.5 nM

GET /value?item= O=C(c1nccs1)[C@]12Cc3cnn(-c4ccc(F)cc4)c3C=C1CCN(S(=O)(=O)c1cncc(N3CCCCC3)c1)C2 [Example 7] &field=Ki returns < 0.5 nM

GET /value?item= CC(C)n1cc(S(=O)(=O)N2CCC3=Cc4c(cnn4-c4ccc(F)cc4)C[C@]3(C(=O)c3ccccn3)C2)cn1 [Example 11CD] &field=Ki returns < 0.5 nM

GET /value?item= Cn1cc(S(=O)(=O)N2CCC3=Cc4c(cnn4-c4ccc(F)cc4)C[C@]3(C(=O)c3cscn3)C2)cn1 [Example 11CY] &field=Ki returns 0.5 to 1 nM

GET /value?item= Cc1cnc(C(=O)[C@]23Cc4cnn(-c5ccc(F)cc5)c4C=C2CCN(S(=O)(=O)c2ccc(F)c(F)c2)C3)s1 [Example 12Q] &field=Ki returns > 1 nM

GET /value?item= O=C(c1nccs1)[C@]12Cc3cnn(-c4ccc(F)cc4)c3C=C1CCN(S(=O)(=O)c1cccc(C(F)(F)F)c1)C2 [Example 12] &field=Ki returns < 0.5 nM

GET /value?item= CN(C)C(=O)c1cccc(S(=O)(=O)N2CCC3=Cc4c(cnn4-c4ccc(F)cc4)C[C@]3(C(=O)c3ccccn3)C2)c1 [Example 14] &field=Ki returns < 0.5 nM

GET /value?item= Cc1ccc(S(=O)(=O)N2CCC3=Cc4c(cnn4-c4ccc(F)cc4)C[C@]3(C(=O)c3ccccn3)C2)cc1F [Example 2J] &field=Ki returns < 0.5 nM

GET /value?item= CCCn1ncc(S(=O)(=O)N2CCC3=Cc4c(cnn4-c4ccc(F)cc4)C[C@]3(C(=O)c3nccs3)C2)n1 (single isomer, unassigned) [Example 12AA] &field=Ki returns < 0.5 nM
